The reader will find reported growth inhibition values listed item by item below.
# test: NCI Yeast Anticancer Drug Screen. Data for the mlh1 rad18 strain (AID 175)
# experimental.context: S. cerevisiae mlh1 rad18 strain growth inhibition; at 50.0 µM; hits give high values
The panel holds about 79,000 compounds, 15% with a hit somewhere; the sample as a whole holds those more often. Activity calls are given as the source filed them. Rule as the data show it: active = growth inhibition above about 70%; inactive = the rest.

{"compound": "CCCCC[N+]1=Cc2cc(O)c(O)cc2CC1", "measurement.type": "growth inhibition", "experimental.result": "-21.7% (inactive)"}

input: Record request: growth inhibition value, item [O-][N+]12CCCCC1C1CC(C2)C2CCCC(c3ccccc3)N2C1 (configuration not stated)
output: -59.2% (inactive)

input: Given "CN(CCOC(=O)c1ccc(Br)cc1)[N+](=O)[O-]" , state its recorded growth inhibition.
output: 22.9% (inactive)

input: Look up growth inhibition for this compound: "NC(N)=NCCN=C(N)N"
output: -9.15% (inactive)

input: I have this compound here, "CCOP(=O)(OCC)/C(=C/c1cccs1)CC(C)=O" , and I need its recorded growth inhibition.
output: -76% (inactive)

input: For the compound shown here, CCOc1ccc(P2(=S)SP(=S)(c3ccc(OCC)cc3)S2)cc1 (configuration not stated) , give the reported growth inhibition.
output: -13.8% (inactive)

input: For the compound C1=CC2CCC[N-]C2N1.C1=CC2CCC[N-]C2N1.[I][Pt+2][I] (configuration not stated) , what growth inhibition is on record?
output: 98.8% (active)
